Biological target: L. donovani CYP51 (Leishmania donovani)
Sequence (A0A3S7WRS7 32-480): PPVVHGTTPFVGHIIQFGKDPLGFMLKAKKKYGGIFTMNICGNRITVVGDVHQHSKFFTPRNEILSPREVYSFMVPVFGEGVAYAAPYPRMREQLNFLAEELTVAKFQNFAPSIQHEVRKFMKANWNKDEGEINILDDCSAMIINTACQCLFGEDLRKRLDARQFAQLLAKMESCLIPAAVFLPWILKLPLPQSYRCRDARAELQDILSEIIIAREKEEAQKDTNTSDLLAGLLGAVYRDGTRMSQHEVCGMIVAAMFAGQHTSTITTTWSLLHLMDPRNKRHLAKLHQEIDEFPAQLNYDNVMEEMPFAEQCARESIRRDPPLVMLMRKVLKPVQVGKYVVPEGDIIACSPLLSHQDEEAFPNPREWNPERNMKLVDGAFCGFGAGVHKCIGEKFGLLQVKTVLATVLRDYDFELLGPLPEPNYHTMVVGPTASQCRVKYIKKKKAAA
Assay: UV-Vis difference binding spectra of ligands with purified recombinant CYP51
REPORTED METRIC: Binding mode with CYP51 (difference binding spectrum)

COMPOUND	OBSERVED RESULT
Clc1ccccc1C(c1ccccc1)(c1ccccc1)n1ccnc1 [Clotrimazole]	type II binding
CC(C)=CCC[C@@H](C)[C@H]1CC[C@@]2(C)C3=C(CC[C@]12C)[C@@]1(C)CC[C@H](O)C(C)(C)[C@@H]1CC3 [Lanosterol]	typical type I binding
C[C@@H](c1ncncc1F)[C@](O)(Cn1cncn1)c1ccc(F)cc1F [Voriconazole]	type II binding
OC(Cn1cncn1)(Cn1cncn1)c1ccc(F)cc1F [Fluconazole]	type II binding
CC(C)=CCC[C@@H](C)[C@H]1CC[C@@]2(C)C3=C(CC[C@]12C)[C@@]1(C)CC[C@H](O)[C@@H](C)[C@@H]1CC3 [4,14-DMZ, 4α,14α-Dimethylzymosterol]	typical type I binding

Now take the following compound into account.
Ask: What value of Binding mode with CYP51 (difference binding spectrum) has been recorded for this entry: CC[C@@H]([C@H](C)O)n1ncn(-c2ccc(N3CCN(c4ccc(OC[C@@H]5CO[C@@](Cn6cncn6)(c6ccc(F)cc6F)C5)cc4)CC3)cc2)c1=O [Posaconazole]
Result: type II binding

---

Molecular target: LdCYP5122A1 (Leishmania donovani, UniProt A0A3S7X0B6)
Sequence (A0A3S7X0B6 61-592): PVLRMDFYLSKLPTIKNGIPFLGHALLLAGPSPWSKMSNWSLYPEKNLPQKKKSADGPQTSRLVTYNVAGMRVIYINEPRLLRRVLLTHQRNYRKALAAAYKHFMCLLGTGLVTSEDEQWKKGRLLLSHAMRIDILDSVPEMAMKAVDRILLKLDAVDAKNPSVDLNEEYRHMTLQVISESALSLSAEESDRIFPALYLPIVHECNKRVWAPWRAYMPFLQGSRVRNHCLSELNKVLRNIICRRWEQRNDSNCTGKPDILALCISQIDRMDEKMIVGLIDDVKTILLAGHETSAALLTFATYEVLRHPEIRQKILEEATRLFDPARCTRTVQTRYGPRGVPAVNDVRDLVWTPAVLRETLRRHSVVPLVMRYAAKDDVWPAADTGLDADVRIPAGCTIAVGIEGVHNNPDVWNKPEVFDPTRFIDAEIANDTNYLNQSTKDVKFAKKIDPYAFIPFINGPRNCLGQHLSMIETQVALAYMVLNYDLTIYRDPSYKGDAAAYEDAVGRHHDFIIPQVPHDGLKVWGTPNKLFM
Assay: biochemical
IC50 under 1000 nM gets condition met, anything at or over 1000 nM gets condition not met.

Ask: Quick check: IC50 of C[C@@H](c1nc(-c2ccc(C#N)cc2)cs1)[C@](O)(Cn1cncn1)c1ccc(F)cc1F under 1000 nM?
Result: condition not met

Ask: Quick check: IC50 of Clc1ccc(C(Cn2ccnc2)OCc2csc3c(Cl)cccc23)c(Cl)c1 (stereo not drawn) under 1000 nM?
Result: condition not met

Ask: Quick check: IC50 of CCCCCCCCCCCCCCCCOP(=O)([O-])OCC[N+](C)(C)C under 1000 nM?
Result: condition not met

Ask: Quick check: IC50 of Clc1ccc(C(Cn2ccnc2)OCc2ccc(Sc3ccccc3)cc2)c(Cl)c1 (stereo not drawn) under 1000 nM?
Result: condition met

Ask: Quick check: IC50 of c1ccc(-c2ccc(C(c3ccccc3)n3ccnc3)cc2)cc1 (stereo not drawn) under 1000 nM?
Result: condition met

Ask: Quick check: IC50 of Clc1ccc(C(Cn2ccnc2)OCc2ccsc2Cl)c(Cl)c1 (stereo not drawn) under 1000 nM?
Result: condition not met

Ask: Quick check: IC50 of Clc1ccc(CCC(Cn2ccnc2)Sc2c(Cl)cccc2Cl)cc1 (stereo not drawn) under 1000 nM?
Result: condition met

Ask: Quick check: IC50 of Clc1ccc(COC(Cn2ccnc2)c2ccc(Cl)cc2Cl)cc1 (stereo not drawn) under 1000 nM?
Result: condition met

Ask: Quick check: IC50 of C[C@@H](c1nc(-c2ccc(C#N)cc2)cs1)[C@](O)(Cn1cncn1)c1cc(F)ccc1F under 1000 nM?
Result: condition not met

Recorded values, source paper PMC11528044.
